# test_target: nLucOGG1 in HeLa cells (Homo sapiens)
# Construct: thermal shift read by NanoGlo luminescence
# Sequence (O15527 whole entry): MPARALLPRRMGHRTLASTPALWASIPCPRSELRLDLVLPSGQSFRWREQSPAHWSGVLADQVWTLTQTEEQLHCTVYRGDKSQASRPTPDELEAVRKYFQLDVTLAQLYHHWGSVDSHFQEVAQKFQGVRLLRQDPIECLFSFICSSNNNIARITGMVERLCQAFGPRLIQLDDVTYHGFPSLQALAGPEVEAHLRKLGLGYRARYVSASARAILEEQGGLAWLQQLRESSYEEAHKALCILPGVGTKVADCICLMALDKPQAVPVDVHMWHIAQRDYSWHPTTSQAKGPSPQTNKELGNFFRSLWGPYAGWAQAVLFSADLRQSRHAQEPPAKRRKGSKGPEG
# assay_name: Cellular Thermal Shift Assay to measure compound affinity for nLucOGG1 in HeLa cells (CETSA DTm)
# Assay type: cell-based
# test_context: 10 μM compound, 37° C. 60 min, Tm vs DMSO control

compound	test_target	ΔTm at 10 µM
COc1ccc(NC(=O)[C@]2(C)CC[C@H](N3Cc4c(C)ccc(OC)c4NC3=O)CC2)cc1C (single isomer, unassigned)	nLucOGG1 in HeLa cells (Homo sapiens)	8 to 10 °C
COc1cc(NC(=O)[C@H]2CC[C@@H](N3Cc4c(C)ccc(C#N)c4C3=O)CC2)ccc1C	nLucOGG1 in HeLa cells (Homo sapiens)	6 to 8 °C
CNCCNc1cc(C)c2c(c1)C(=O)N([C@H]1CC[C@@H](C(=O)Nc3ccc(C)c(OC)c3)CC1)C2	nLucOGG1 in HeLa cells (Homo sapiens)	> 10 °C
COc1ccc(NC(=O)[C@H]2CC[C@@H](N3Cc4c(C)cc(NCCN(C)C)cc4NC3=O)CC2)cc1C	nLucOGG1 in HeLa cells (Homo sapiens)	8 to 10 °C
COc1ccc(NC(=O)[C@]2(C)CC[C@H](N3Cc4c(C)ccc(OC)c4NC3=O)CC2)cc1C#N (single isomer, unassigned)	nLucOGG1 in HeLa cells (Homo sapiens)	8 to 10 °C
COc1ccc(NC(=O)[C@H]2CC[C@@H](N3Cc4c(C)ccc(OC)c4NC3=O)CC2)cc1C#N	nLucOGG1 in HeLa cells (Homo sapiens)	6 to 8 °C
COc1ccc(NC(=O)[C@]2(C)CC[C@@H](N3Cc4c(C)ccc(OC)c4NC3=O)CC2)cc1C#N (single isomer, unassigned)	nLucOGG1 in HeLa cells (Homo sapiens)	≤ 6 °C

###

Reported IC50 is given for each of the following molecules.
# test_target: UniProtKB O15527
# assay_name: Biochemical fluorescence assay to measure enzymatic activity of hOGG1 (OGG1/APEX IC50)
# Set-up: Protein His-hOGG1 (12-323) was prepared; His (N); host or cells: E. coli
# test_context: 1 nM OGG1+2 nM APEX+6 nM dsDNA (8-oxo-dG substrate); pH 7.5; RT 40 min; read-out: OGG1/APEX IC50

molecule	IC50
COc1cc(NC(=O)[C@H]2CC[C@@H](N3Cc4c(Br)cc(NC(=O)CN5CCOCC5)cc4C3=O)CC2)ccc1C [Example 199]	100 to 1000 nM
COc1cc(NC(=O)[C@H]2CC[C@@H](N3Cc4c(C)cnc(CNS(C)(=O)=O)c4NC3=O)CC2)ccc1C [Example 18]	< 100 nM
COc1cc(NC(=O)[C@H]2CC[C@@H](N3Cc4c(C)cccc4C3=O)CC2)ccc1CO [Example 145]	1000 to 10000 nM
COc1cc(NC(=O)[C@H]2CC[C@@H](N3Cc4c(Br)cc([N+](=O)[O-])cc4C3=O)CC2)ccc1C [Example 163]	100 to 1000 nM

###

Reported pKd is given for each of the following molecules.
# test_target: hOGG1 (Homo sapiens, UniProt O15527)
# Sequence (O15527 12-323): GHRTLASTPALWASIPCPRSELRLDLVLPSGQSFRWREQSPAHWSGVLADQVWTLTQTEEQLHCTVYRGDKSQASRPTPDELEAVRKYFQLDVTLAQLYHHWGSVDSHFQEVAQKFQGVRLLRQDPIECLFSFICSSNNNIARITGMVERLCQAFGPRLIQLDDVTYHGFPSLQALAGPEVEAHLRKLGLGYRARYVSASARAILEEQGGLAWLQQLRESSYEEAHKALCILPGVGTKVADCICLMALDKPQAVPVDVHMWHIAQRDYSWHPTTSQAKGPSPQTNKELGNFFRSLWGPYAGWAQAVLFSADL
# assay_name: Surface Plasma Resonance with hOGG1 to measure compound affinity (OGG1 SPR Kd)
# test_context: Biacore T-200, immobilized his-tagged OGG1; pH 7.4; 2% DMSO; single-cycle kinetics
pKd: −log10 of the molar value.

molecule	pKd
COc1ccc(NC(=O)[C@]2(C)CC[C@H](N3Cc4c(C)cccc4NC3=O)CC2)cc1Cl (single isomer, unassigned)	7.00 to 8.00
COc1cc(NC(=O)[C@H]2CC[C@@H](N3Cc4c(C)cc(-c5nnco5)cc4NC3=O)CC2)ccc1C	7.00 to 8.00
COc1ccc(NC(=O)[C@]2(C)CC[C@@H](N3Cc4c(C)ccc(OC)c4NC3=O)CC2)cc1C#N (single isomer, unassigned)	< 6.00
